target: PDH phosphatase (Homo sapiens, UniProt Q9P0J1); experiment: PDH activation assay; assay type: biochemical; settings: 100 μM compound
Sequence (Q9P0J1 72-537): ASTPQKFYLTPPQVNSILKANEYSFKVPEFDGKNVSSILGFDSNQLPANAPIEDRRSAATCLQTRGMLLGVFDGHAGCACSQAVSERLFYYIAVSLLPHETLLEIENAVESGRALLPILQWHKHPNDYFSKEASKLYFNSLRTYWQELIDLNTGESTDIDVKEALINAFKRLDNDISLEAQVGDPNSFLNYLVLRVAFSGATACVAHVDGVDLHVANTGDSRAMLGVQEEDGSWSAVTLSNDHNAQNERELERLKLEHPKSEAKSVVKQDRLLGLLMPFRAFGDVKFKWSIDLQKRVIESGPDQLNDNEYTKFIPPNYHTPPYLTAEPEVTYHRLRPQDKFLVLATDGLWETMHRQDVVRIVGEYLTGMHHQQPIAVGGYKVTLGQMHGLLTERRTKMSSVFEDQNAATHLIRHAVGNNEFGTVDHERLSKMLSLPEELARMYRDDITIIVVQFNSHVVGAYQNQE
We begin with a simple list: items and their reported PDH activation.
Output spec: scalar in %, unitless text.

# count of solved cases: 4
>>> df
                                   molecule  endpointvalue
0  N[C@H]1[C@@H](O[C@H]2[C@H](O)[C@H](O)[C@H](O)[C@@H](O)[C@@H]2O)O[C@H](CO)[C@@H](OP(=O)(O)O)[C@@H]1O [RGL1027]            132
1  N[C@H]1[C@@H](O[C@H]2[C@H](O)[C@H](O)[C@H](O)[C@@H](O)[C@@H]2O)O[C@H](CO)[C@@H](O)[C@@H]1OP(=O)(O)O [RGL1029]            361
2  COC1C(O)C(O)C(OC2OC(CO)C(O)C(O)C2N)C(O)C1O (centres unmarked) [RGL1015]             38
3  CO[C@H]1[C@H](O)[C@@H](O)[C@@H](O[C@H]2O[C@H](CO)[C@@H](O)[C@H](O)[C@H]2N)[C@H](O)[C@@H]1O [RGL1024]             65

Next:
Input: Reported PDH activation for PDH phosphatase (Homo sapiens, UniProt Q9P0J1), given NC1C(OC2C(O)C(O)C(O)C(O)C2O)OC(COP(=O)(O)O)C(O)C1O (centres unmarked) [RGL1023] ?
Output: 14
